# measured_on: 5-hydroxytryptamine receptor 3A/3B (Rattus norvegicus, UniProt P35563+Q9JJ16)
# Sequence (P35563 whole entry): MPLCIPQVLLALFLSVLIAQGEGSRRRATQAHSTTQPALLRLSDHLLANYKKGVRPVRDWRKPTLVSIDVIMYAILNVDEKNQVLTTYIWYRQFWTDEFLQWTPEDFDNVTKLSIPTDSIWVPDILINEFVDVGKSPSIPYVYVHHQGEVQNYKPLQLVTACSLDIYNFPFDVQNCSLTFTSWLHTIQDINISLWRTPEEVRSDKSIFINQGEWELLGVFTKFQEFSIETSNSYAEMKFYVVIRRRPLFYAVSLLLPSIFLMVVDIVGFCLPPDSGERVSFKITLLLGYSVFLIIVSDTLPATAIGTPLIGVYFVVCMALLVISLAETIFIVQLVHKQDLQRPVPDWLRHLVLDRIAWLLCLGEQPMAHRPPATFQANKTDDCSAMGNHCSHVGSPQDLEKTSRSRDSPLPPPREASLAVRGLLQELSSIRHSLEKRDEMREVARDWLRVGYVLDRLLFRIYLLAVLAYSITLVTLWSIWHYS
# Sequence (Q9JJ16 whole entry): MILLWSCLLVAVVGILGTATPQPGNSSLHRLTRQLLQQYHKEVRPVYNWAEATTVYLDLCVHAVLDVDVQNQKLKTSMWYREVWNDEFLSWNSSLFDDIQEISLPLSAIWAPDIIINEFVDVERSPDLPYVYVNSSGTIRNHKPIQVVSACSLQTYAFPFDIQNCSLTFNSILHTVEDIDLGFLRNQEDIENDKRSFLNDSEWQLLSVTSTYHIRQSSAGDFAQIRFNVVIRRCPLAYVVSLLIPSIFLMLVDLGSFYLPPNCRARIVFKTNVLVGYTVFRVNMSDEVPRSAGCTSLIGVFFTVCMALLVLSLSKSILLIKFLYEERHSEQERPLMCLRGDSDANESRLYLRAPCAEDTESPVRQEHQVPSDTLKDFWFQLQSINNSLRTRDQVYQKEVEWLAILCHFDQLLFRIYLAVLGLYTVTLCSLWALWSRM
# test_name: Binding affinity to 5-hydroxytryptamine 3 receptor was determined in rat cerebro cortical membranes using [3H]quipazine.
quantity: Ki

Exercise: Which Ki value belongs to `COc1cc(N)c(Cl)cc1C(=O)N[C@H]1CN2CCC1CC2` ?
Key: 3.2 nM
